Experiment: qHTS assay for MDR1-selective chemotherapeutics: Primary screen using the drug-selected MDR subline cells KB-V1; also: nearly all actives have a fitted effect of over 60% in size
Conditions: KB-V1 MDR cells viability, CellTiter-Glo, 72 h; series mostly up to 46.1 µM
From the text: A prime difficulty in effectively treating cancer is the development of cellular resistance to multiple structurally unrelated anticancer drugs, a phenomenon known as multidrug resistance (MDR). […] Numerous strategies to overcome P-gp-mediated MDR have been explored, including the design of drugs that evade recognition and efflux, and development of inhibitors to block efflux and restore drug accumulation. […]
Hit rate of the full screen: of about 400,000 compounds, about 13,000 (3.2%) were called active. Roughly 18% stayed inconclusive and do not appear here. Calls follow the shape of the dose curve; as a rule, active = well fitted cell-killing curve with a large enough effect; inconclusive = small, poorly fitted or top-dose-only effect, or effect the other way; inactive = flat fitted curve, though single readings scatter. Shown is part of a subset that was picked to be rich in actives.
Mark one answer only. Choices: label 1 = active, label 0 = inactive

Please share the test call associated with `Cn1c(=O)c2c(nc(NCCc3ccccc3)n2Cc2ccccc2)n(C)c1=O` .
label 1

Please share the test call associated with `Cn1c(=O)c2c(nc(NCCc3ccccc3)n2Cc2ccccc2Br)n(C)c1=O` .
label 0
